- tested_on: CDK2/Cyclin E1 full length (Homo sapiens (Human), UniProt P24941)
- method_summary: CDK2/Cyclin E1 full length mobility shift assay
pKi: −log10 of the molar value.
Answer Condition not met if pKi is under 9, and Condition met if it is 9 or more.

**Q:** Evaluate CCCNC(=O)O[C@H]1CC[C@@H](c2cc(NC(=O)C3COc4ccccc43)n[nH]2)C1 (single isomer, unassigned) [Example 25] : pKi at minimum 9?
**A:** Condition not met

**Q:** Evaluate CCC(CO)CNC(=O)O[C@@H]1CC[C@H](c2cc(NC(=O)Cc3cc(F)cc(F)c3)n[nH]2)C1 (single isomer, unassigned) [Example 536] : pKi at minimum 9?
**A:** Condition not met

**Q:** Evaluate "C[C@]1(O)CC[C@@H](NC(=O)O[C@H]2CC[C@@H](c3cc(NC(=O)Cc4ccccc4)n[nH]3)C2)CC1" : pKi at minimum 9?
**A:** Condition met

**Q:** Evaluate "CC[C@H](C)NC(=O)O[C@@H]1CC[C@H](c2cc(NC(=O)Cc3cccnc3OC)n[nH]2)C1" : pKi at minimum 9?
**A:** Condition not met

**Q:** Evaluate "CC1(NC(=O)O[C@@H]2CC[C@H](c3cc(NC(=O)Cc4ccc(Cl)cn4)n[nH]3)C2)CC1" : pKi at minimum 9?
**A:** Condition met

**Q:** Evaluate "COc1cc(CC(=O)Nc2cc([C@@H]3CC[C@H](OC(=O)N[C@H]4CC[C@@](C)(O)CC4)C3)[nH]n2)ccn1" : pKi at minimum 9?
**A:** Condition met

**Q:** Evaluate "Cc1cnc(CC(=O)Nc2cc([C@H]3CC[C@@H](OC(=O)NC4(C)CCC4)C3)[nH]n2)o1" : pKi at minimum 9?
**A:** Condition met

**Q:** Evaluate "Cn1cc(CC(=O)Nc2cc([C@H]3CC[C@@H](OC(=O)NC4(C)CCC4)C3)[nH]n2)cn1" : pKi at minimum 9?
**A:** Condition met

**Q:** Evaluate "CCNC(=O)O[C@@H]1CC[C@H](c2cc(NC(=O)Cc3ccc4c(cnn4C)c3)n[nH]2)C1" : pKi at minimum 9?
**A:** Condition met

====

Kindly supply the reported Ki values for the records listed here.
- tested_on: CDK2/Cyclin E1 full length (Homo sapiens (Human), UniProt P24941)
- method_summary: CDK2/Cyclin E1 full length mobility shift assay
Give the quantity in nM, number only.

**Q:** Which Ki is reported for this molecule? C[C@H]1CCCN1C(=O)O[C@@H]1CC[C@H](c2cc(NC(=O)Cc3ccccn3)n[nH]2)C1 [Example 630]
**A:** 1.43

**Q:** Which Ki is reported for this molecule? COc1ccc(S(C)(=O)=O)c(CC(=O)Nc2cc([C@H]3CC[C@@H](OC(=O)NC(C)C)C3)[nH]n2)c1 [Example 288]
**A:** 0.39

**Q:** Which Ki is reported for this molecule? Cc1ncc(CC(=O)Nc2cc([C@H]3CC[C@@H](OC(=O)NC4(C)CCOC4)C3)[nH]n2)s1 (single isomer, unassigned) [Example 481]
**A:** 0.53

**Q:** Which Ki is reported for this molecule? C[C@H]1CCN1C(=O)O[C@@H]1CC[C@H](c2cc(NC(=O)Cc3cnn(C)c3)n[nH]2)C1 [Example 588]
**A:** 0.75

**Q:** Which Ki is reported for this molecule? CC(C)(C)NC(=O)O[C@@H]1CC[C@H](c2cc(NC(=O)Cc3ccno3)n[nH]2)C1 [Example 108]
**A:** 0.15

**Q:** Which Ki is reported for this molecule? COc1cc(CC(=O)Nc2cc([C@H]3CC[C@@H](OC(=O)NC(C)CC(F)F)C3)[nH]n2)ccn1 (single isomer, unassigned) [Example 99]
**A:** 0.09

**Q:** Which Ki is reported for this molecule? CC1(NC(=O)O[C@@H]2CC[C@H](c3cc(NC(=O)Cc4cc(C(F)(F)F)ccn4)n[nH]3)C2)CC1 [Example 444]
**A:** 1.41

**Q:** Which Ki is reported for this molecule? CC[C@H](C)NC(=O)O[C@@H]1CC[C@H](c2cc(NC(=O)Cc3ccc(COC)cc3S(C)(=O)=O)[nH]n2)C1 [Example 376]
**A:** 0.4

**Q:** Which Ki is reported for this molecule? Cc1nnc(CC(=O)Nc2cc([C@H]3CC[C@@H](OC(=O)NC4(C)CCC4)C3)[nH]n2)o1 [Example 459]
**A:** 0.32

**Q:** Which Ki is reported for this molecule? CC(C)(C)NC(=O)O[C@@H]1CC[C@H](c2cc(NC(=O)Cc3ccc(Cl)cn3)n[nH]2)C1 [Example 310]
**A:** 0.69

**Q:** Which Ki is reported for this molecule? Cc1cnc(CC(=O)Nc2cc([C@H]3CC[C@@H](OC(=O)NC(C)C)C3)[nH]n2)o1 [Example 271]
**A:** 1.57

**Q:** Which Ki is reported for this molecule? CC[C@H](C)NC(=O)O[C@@H]1CC[C@H](c2cc(NC(=O)c3ccnc4ncsc34)n[nH]2)C1 [Example 43]
**A:** 0.04

**Q:** Which Ki is reported for this molecule? CC[C@H](C)NC(=O)O[C@@H]1CC[C@H](c2cc(NC(=O)Cc3cn(C(C)C)nn3)n[nH]2)C1 [Example 350]
**A:** 3.45

**Q:** Which Ki is reported for this molecule? CC1(NC(=O)O[C@@H]2CC[C@H](c3cc(NC(=O)Cc4ncccc4F)n[nH]3)C2)CC1 [Example 429]
**A:** 1.15

====

- tested_on: CDK2/Cyclin E1 full length (Homo sapiens (Human))
- method_summary: CDK2/Cyclin E1 full length mobility shift assay
Kindly supply the reported Ki values for the records listed here.
Give the quantity in nM, number only.

**Q:** Checklist item: Ki tested on CDK2/Cyclin E1 full length (Homo sapiens (Human)), entry "CC[C@@H](C)NC(=O)O[C@@H]1CC[C@H](c2cc(NC(=O)Cc3ccno3)n[nH]2)C1" , value?
**A:** 0.93

**Q:** Checklist item: Ki tested on CDK2/Cyclin E1 full length (Homo sapiens (Human)), entry "COc1ccc(CC(=O)Nc2cc([C@@H]3CC[C@H](OC(=O)N4C[C@@H](O)[C@@H]4C)C3)[nH]n2)cn1" , value?
**A:** 1.66

**Q:** Checklist item: Ki tested on CDK2/Cyclin E1 full length (Homo sapiens (Human)), entry "CC[C@H](C)NC(=O)O[C@@H]1CC[C@H](c2cc(NC(=O)Cc3cc(C)ccc3S(C)(=O)=O)n[nH]2)C1" , value?
**A:** 0.32

**Q:** Checklist item: Ki tested on CDK2/Cyclin E1 full length (Homo sapiens (Human)), entry "Cc1cnc(CC(=O)Nc2cc([C@H]3CC[C@@H](OC(=O)NCCC(F)(F)F)C3)[nH]n2)o1" , value?
**A:** 2.09

**Q:** Checklist item: Ki tested on CDK2/Cyclin E1 full length (Homo sapiens (Human)), entry CC(CC(F)(F)F)NC(=O)O[C@@H]1CC[C@H](c2cc(NC(=O)Cc3ccno3)n[nH]2)C1 (single isomer, unassigned) [Example 85] , value?
**A:** 1.06

**Q:** Checklist item: Ki tested on CDK2/Cyclin E1 full length (Homo sapiens (Human)), entry "CC[C@H](C)NC(=O)O[C@@H]1CC[C@H](c2cc(NC(=O)Cc3ccn(C)n3)n[nH]2)C1" , value?
**A:** 1.77

**Q:** Checklist item: Ki tested on CDK2/Cyclin E1 full length (Homo sapiens (Human)), entry COc1ccc(CC(=O)Nc2cc([C@H]3CC[C@@H](OC(=O)N4CCC4C)C3)[nH]n2)cn1 (single isomer, unassigned) [Example 151] , value?
**A:** 0.15

====

- tested_on: CDK2/Cyclin E1 full length (Homo sapiens (Human), UniProt P24941)
- method_summary: CDK2/Cyclin E1 full length mobility shift assay
Kindly supply the reported pKi values for the records listed here.
// pKi here means minus log10 of the molar concentration (mol/L)

**Q:** Which pKi is reported for this compound? COCc1cc(C(=O)Nc2cc([C@H]3CC[C@@H](OC(=O)NC4(C)CCOC4)C3)[nH]n2)n(C)n1 (single isomer, unassigned) [Example 488]
**A:** 8.85

**Q:** Which pKi is reported for this compound? "Cc1ncc(CC(=O)Nc2cc([C@@H]3CC[C@H](OC(=O)N[C@H]4CC[C@@H](O)CC4)C3)[nH]n2)s1"
**A:** 9.44

**Q:** Which pKi is reported for this compound? "CCCNC(=O)O[C@@H]1CC[C@H](c2cc(NC(=O)Cc3ccccc3S(N)(=O)=O)n[nH]2)C1"
**A:** 8.95

**Q:** Which pKi is reported for this compound? CC(CC(F)(F)F)N(C)C(=O)O[C@@H]1CC[C@H](c2cc(NC(=O)c3cnnn3C)n[nH]2)C1 (single isomer, unassigned) [Example 411]
**A:** 8.59

**Q:** Which pKi is reported for this compound? "CCCNC(=O)O[C@@H]1CC[C@H](c2cc(NC(=O)Cc3ccno3)n[nH]2)C1"
**A:** 8.79

**Q:** Which pKi is reported for this compound? "Cc1cc(CC(=O)Nc2cc([C@H]3CC[C@@H](OC(=O)NC(C)(C)C)C3)[nH]n2)on1"
**A:** 9.72

**Q:** Which pKi is reported for this compound? "Cc1cc(CC(=O)Nc2cc([C@H]3CC[C@@H](OC(=O)N[C@H](C)C4CC4)C3)[nH]n2)on1"
**A:** 9.51
